target: T1, rhNav1.7α + β1-β2-β3 (rhesus monkey); assay: binding FACS, CHO FlpIn cells
T1 construct: also called rhNav1.7-beta1-beta2-beta3; rhesus Nav1.7α
Exercise: state measured Bmax for each of the binders provided.
Respond with the figure and its unit, in that order.

Return the recorded Bmax value; entry: F010302337 (VHH) VHH: EVQLVESGGGVVQPGGSLRLSCAASHRQFIRDVFTGWYRRAPGKQRELVARIYEGGNTQYADSAKGRFTISRDNAKKTVYLQMNSLRPEDTALYYCLFSGTISTGREYRSGDYWGQGTLVTVSS 100%

Return the recorded Bmax value; entry: F010302334 (VHH) VHH: EVQLVESGGGVVQPGGSLRLSCAASSRQFIRDVFTGWYRRAPGKQRELVARIYNEGNTQYADSAKGRFTISRDNAKKTVYLQMNSLRPEDTALYYCLFSGTISTGREYRSGDYWGQGTLVTVSS 70%
